- METHOD DESCRIPTION: viability loss in pontine glioma line – cell-based, SU-DIPG-XXV, MIPE5.0, CellTiter-Glo, qHTS, dose response (AID 1347065);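 also: cells exposed to compound for 48 hours before ATP readout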
- RUN PARAMETERS: CellTiter-Glo ATP luminescence
Inconclusive results are not listed. Activity calls are given as the source filed them. The limit is not given here; nearly all actives have AC50 up to about 26 µM.
Labels: TRUE = active, FALSE = inactive

1. N#Cc1c(NC(=O)c2cccc3ccccc23)sc2c1CCCC2	TRUE
2. CC1=C2[N-][C@H]([C@H](CC(N)=O)[C@@]2(C)CCC(=O)NC[C@@H](C)OP(=O)([O-])O[C@H]2[C@@H](O)[C@@H](n3cnc4cc(C)c(C)cc43)O[C@@H]2CO)[C@]2(C)N=C(C(C)=C3N=C(C=C4N=C1[C@@H](CCC(N)=O)C4(C)C)[C@@H](CCC(N)=O)[C@]3(C)CC(N)=O)[C@@H](CCC(N)=O)[C@]2(C)CC(N)=O.O.[Co+2]	FALSE
3. CN(C)CCOc1cc(-c2cn[nH]c2)ccc1NC(=O)C1COc2ccccc2O1 (stereo unspecified)	TRUE
4. Cc1ccc(NC(=O)C2(c3ccc4c(c3)OC(F)(F)O4)CC2)nc1-c1cccc(C(=O)O)c1	FALSE
5. CCOCc1nc2c(N)nc3ccccc3c2n1CC(C)(C)O	FALSE
6. NC(=O)c1cnc2[nH]ccc2c1NC1C2CC3C[C@H]1CC(O)(C3)C2 (stereo partly specified)	TRUE

###

- METHOD DESCRIPTION: growth inhibition, single agents and combos, LFS_MB_1R, cell-based, cisplatin or BGB combos, synergistic combos for chromothripsis tumors (AID 1671452);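 also: cells exposed for 96 hours before readout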
- RUN PARAMETERS: LFS_MB_1R medulloblastoma cells, measured here: combination with cisplatin, at 0.5 µM, stronger effect = higher value
In this section, each of the compounds is paired with its reported inhibition.
MEASURED PROPERTY: inhibition

1. CS(=O)(=O)c1ccc(-c2nnc(/C=C/c3nnc(-c4ccc(C#N)cc4)o3)n2-c2ccccc2Cl)nc1	-21.2%
2. COc1cc2ncnc(-n3nc(-c4ccccn4)nc3N)c2cc1OC	-87.1%
3. CCCCc1nc2cc(/C=C/C(=O)NO)ccc2n1CCN(CC)CC	45.7%
4. COc1ccc(C(=O)CC2(O)C(=O)Nc3c(Cl)ccc(Cl)c32)cc1 (centres undefined)	23.2%

###

- METHOD DESCRIPTION: viability loss with induced miR-34 in A549 – imaging, A549 dox-inducible miR-34, nuclei and caspase counts, primary screen (AID 1347080)
- RUN PARAMETERS: A549 miR-34 inducible, Hoechst nuclei count, 48 h; stronger effect = lower value; cell number ratio, induced over uninduced
MEASURED PROPERTY: fold change

1. COc1ccc2cc(C(C#N)OC(=O)CC3OC3c3ccccc3)ccc2c1 (stereo not drawn)	0.909
2. O=c1oc(-c2ccc(C(F)(F)F)cc2)nn1Cc1cc(Cl)ccc1O	1.02
3. COc1ccc(S(=O)(=O)N2c3ccc(Cl)cc3[C@](O)(c3ccccc3Cl)[C@@H]2C(=O)N2CCC[C@H]2C(N)=O)cc1OC	0.908
4. CC(C)CCCCCCC/C=C/C(=O)O	0.859
5. C[n+]1ccc(/C=C/c2c[nH]c3ccccc23)cc1	1.05
6. CCCCC[C@H](O)/C=C/[C@@H]1[C@@H](C/C=C\CCCCCC(=O)O)[C@@H](O)C[C@H]1O	0.876
7. CCOC(=O)NC[C@H](Cc1ccc(OCCc2nc(-c3ccccc3)oc2C)cc1)N/C(C)=C\C(=O)c1ccc(C(F)(F)F)cc1	1.05
8. CC(C(=O)Nc1cccc(N=Cc2c(O)ccc3ccccc23)c1)c1ccccc1 (stereo not drawn)	0.971
9. Cc1cc(C)cc(C(=O)N(C)[C@H](Cc2ccc(-c3ccccc3)cc2)C(=O)N[C@@H](Cc2c[nH]c3ccccc23)C(=O)O)c1	0.884
10. Cc1ccc(Sc2ccccc2N2CCNCC2)c(C)c1	0.93
11. CC(C)C1C2CCC(C2)C1N (stereo not drawn)	0.973
12. CC(=O)O[C@@]12C[C@@H](C)[C@@]3(O)[C@@H](C=C(CO)C[C@]4(O)C(=O)C(C)=C[C@@H]34)[C@@H]1C2(C)C	0.95
13. CCCCCCCC(=O)CC[C@@H]1[C@@H](C/C=C\CCCC(=O)OC(C)C)[C@@H](O)C[C@H]1O	0.954
14. COc1ccc(CCC(=O)Nc2nc3ccc(Cl)cc3s2)cc1OC	0.879
15. O=P(O)(O)OC1[C@H](O)[C@H](O)C(O)[C@H](O)[C@H]1O (stereo partly drawn)	1.11
16. COc1ccc([C@H]2CNC(=O)C2)cc1OC1CCCC1	0.966
17. CCCCCC(=O)CC[C@H]1[C@H](O)CC(=O)[C@@H]1CCCCCCC(=O)O	0.94
18. c1ccc2c(CCNc3ccc(Nc4ccncc4)cc3)c[nH]c2c1	1.02
